FYI, the data here is from patent US20200247855A1.

# Lookup of reported pKd keyed by entry
# assayed.system: CXCL1_HUMAN (human, UniProt P09341 35-107)
# Sequence (P09341 35-107): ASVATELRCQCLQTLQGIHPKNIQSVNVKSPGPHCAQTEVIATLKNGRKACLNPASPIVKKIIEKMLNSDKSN
# assay.info: BLI
Note on units: pKd is unitless, being -log10 of a concentration expressed in mol/L.

Examples with their reported pKd follow.
binder	val
P1174_IXORI (other) LNNENELFSVEYCGANCTQQDNGSWTKCKGNCTCYHEDGKRYGLCLSTEYTDFTQFPKPTSEEIADASPRPKETNSH	7.81
P1100_IXORI (other) GSKGSSASQSSDNSVVAKFCDTNCTINEGGKWTECKGGCFCVHVGNETVGRCMKLDGDYDYPSPKPEE	7.30

Pending binder:
### Prompt May I ask what pKd has been recorded for P1126_AMBCA (other) KPQILQRTDKSTDSEWDPQTCPETCIPSKNITCSDGCVCVKLGEEEEGTCFNMTGVDWLGSPSDD ?
### Response 7.98
